System Tested: ROCK2 (Homo sapiens (Human), UniProt O75116)
Sequence (O75116 whole entry, species assumed): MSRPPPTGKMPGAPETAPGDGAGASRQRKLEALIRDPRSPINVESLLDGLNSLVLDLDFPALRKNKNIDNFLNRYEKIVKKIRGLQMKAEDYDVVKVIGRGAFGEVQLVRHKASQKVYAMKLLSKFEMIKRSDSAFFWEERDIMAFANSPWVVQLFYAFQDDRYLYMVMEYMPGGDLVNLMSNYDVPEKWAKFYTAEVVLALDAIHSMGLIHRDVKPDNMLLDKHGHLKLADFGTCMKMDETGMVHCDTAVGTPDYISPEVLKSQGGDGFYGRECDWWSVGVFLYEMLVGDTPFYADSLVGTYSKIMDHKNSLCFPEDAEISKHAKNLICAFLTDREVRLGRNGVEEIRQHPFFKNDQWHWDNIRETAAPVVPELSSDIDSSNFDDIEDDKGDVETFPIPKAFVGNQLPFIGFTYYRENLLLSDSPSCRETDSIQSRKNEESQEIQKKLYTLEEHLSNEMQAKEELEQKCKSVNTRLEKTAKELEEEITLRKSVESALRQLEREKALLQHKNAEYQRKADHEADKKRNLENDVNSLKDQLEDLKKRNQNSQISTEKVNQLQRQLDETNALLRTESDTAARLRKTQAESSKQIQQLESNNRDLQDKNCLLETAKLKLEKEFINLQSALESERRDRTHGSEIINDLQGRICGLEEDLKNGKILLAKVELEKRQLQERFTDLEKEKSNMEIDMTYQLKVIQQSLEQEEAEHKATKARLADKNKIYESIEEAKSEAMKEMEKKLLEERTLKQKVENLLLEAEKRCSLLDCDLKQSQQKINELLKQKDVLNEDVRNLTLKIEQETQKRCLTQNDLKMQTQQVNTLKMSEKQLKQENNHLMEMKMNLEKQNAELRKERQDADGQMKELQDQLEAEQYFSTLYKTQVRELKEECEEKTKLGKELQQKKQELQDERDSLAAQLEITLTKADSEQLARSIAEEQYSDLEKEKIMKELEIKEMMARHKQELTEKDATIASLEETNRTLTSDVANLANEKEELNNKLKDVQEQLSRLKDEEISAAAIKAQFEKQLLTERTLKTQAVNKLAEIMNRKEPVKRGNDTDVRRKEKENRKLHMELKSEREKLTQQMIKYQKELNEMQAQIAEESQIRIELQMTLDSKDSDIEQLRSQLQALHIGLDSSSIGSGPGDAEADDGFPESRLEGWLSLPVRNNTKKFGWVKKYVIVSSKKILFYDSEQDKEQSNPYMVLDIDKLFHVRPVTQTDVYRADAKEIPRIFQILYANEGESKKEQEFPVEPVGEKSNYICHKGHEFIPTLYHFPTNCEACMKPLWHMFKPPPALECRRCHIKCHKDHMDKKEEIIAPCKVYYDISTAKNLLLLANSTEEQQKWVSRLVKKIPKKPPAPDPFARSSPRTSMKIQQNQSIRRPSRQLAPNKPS
Measurement Protocol: Z-lyte FRET assay to measure kinase inhibition, ROCK2
Type: biochemical
# key: entry, value: pIC50
pIC50 is a log-scale quantity: -log10 of the concentration expressed in molar.

Solved cases (4 shown):
| Compound | pIC50 |
| --- | --- |
| COc1cccc(Nc2ccnc(N)n2)c1 | 4.37 |
| Nc1nccc(N2CCc3cc(Cl)ccc32)n1 | 5.92 |
| Nc1nccc(-n2ccc3c(C(=O)NCc4ccccc4)cccc32)n1 | 6.70 |
| Nc1nccc(N2CCCc3ccccc32)n1 | 4.45 |

Give the reported value of pIC50 for this record: "Nc1nccc(-n2ccc3c(C(=O)NCc4ccccc4F)cccc32)n1"
6.04

Fill in pIC50 for record "Nc1nccc(Nc2cccc(S(N)(=O)=O)c2)n1"
5.21

Give the value of pIC50 reported for the following: "Cc1ccc2c(ccn2-c2ccnc(N)n2)c1"
5.15

====

System Tested: ROCK2 (Homo sapiens (Human))
Measurement Protocol: Z-lyte FRET assay to measure kinase inhibition, ROCK2
Format: biochemical
pIC50: −log10 of the molar value.
Returns YES if the recorded pIC50 is greater than or equal to 6, and NO otherwise.

Past entries and their recorded results:
| Compound | Qualitative Label |
| --- | --- |
| COC(=O)c1cccc(Nc2ccnc(N)n2)c1 | NO |
| Nc1nccc(Nc2ccccc2)n1 | NO |
| Nc1nccc(-n2ccc3c(C(=O)NCc4cccc(F)c4)cccc32)n1 | YES |
| COc1ccc2c(c1)c(CCNC(C)=O)cn2-c1ccnc(N)n1 | NO |
| CC1Cc2cc(F)ccc2N1c1ccnc(N)n1 (stereo not shown) | YES |

Dear colleague, could you confirm whether "Nc1nccc(-n2ccc3c(OCc4ccc(Cl)cc4)cccc32)n1" has pIC50 at or above 6?
YES

Say whether "Nc1nccc(-n2ccc3c(OCc4ccccc4)cccc32)n1" shows pIC50 of 6 or more.
YES

====

System Tested: ROCK1 (Homo sapiens (Human))
Measurement Protocol: Z-lyte FRET assay to measure kinase inhibition, ROCK1
Format: biochemical
Experimental Setup: read-out: ROCK1 IC50
Here the recorded pIC50 is given for each entry.
Scale explanation: pIC50 corresponds to minus log10 of a concentration expressed in moles per litre.

Use these answered entries as a reference point.
| Compound | pIC50 |
| --- | --- |
| Nc1nccc(-n2ccc3cc(C(=O)NCc4ccccc4)ccc32)n1 | 5.62 |
| Nc1nccc(-n2ccc3c(C(=O)NCCc4ccccc4)cccc32)n1 | 5.70 |
| COC[C@H](NC(=O)c1cccc2c1ccn2-c1ccnc(N)n1)c1ccccc1 | 4.81 |
| NC(=O)c1cccc(Nc2ccnc(N)n2)c1 | 4.41 |
| Nc1nccc(-n2ccc3c(OCc4cccc(Cl)c4)cccc32)n1 | 4.46 |
| Nc1nccc(-n2ccc3c(OCc4ccc(Cl)cc4)cccc32)n1 | 5.72 |
| Nc1nccc(-n2cnc3ccccc32)n1 | 4.41 |
| Nc1nccc(-n2ccc3cc(C(=O)NCCc4ccccc4)ccc32)n1 | 5.55 |
| Nc1nccc(N2CCc3cc(Br)ccc32)n1 | 5.77 |
| CC1Cc2cc([N+](=O)[O-])ccc2N1c1ccnc(N)n1 (stereo not drawn) | 6.30 |

With ROCK1 (Homo sapiens (Human)) as the test system, provide measured pIC50 for this compound: "Nc1nccc(-n2ccc3c(OCc4ccccc4Cl)cccc32)n1"
4.54

Look up and report measured pIC50 (ROCK1 (Homo sapiens (Human))) for the following compound: "CSc1ccc(Nc2ccnc(N)n2)cc1"
4.68

====

System Tested: ROCK1 (Homo sapiens (Human))
Measurement Protocol: Z-lyte FRET assay to measure kinase inhibition, ROCK1
Assay type: biochemical
Experimental Setup: read-out: ROCK1 IC50
Documented pIC50 across a set of molecules
Value format note: pIC50 is -log10 of concentration (mol/L); just state the number.

| Molecule | pIC50 |
| --- | --- |
| Nc1nccc(-n2ccc3cc(Br)ccc32)n1 | 5.68 |

Read off the recorded pIC50 for "COc1cccc(CNC(=O)c2cccc(Nc3ccnc(N)n3)c2)c1"
5.14

Fill in pIC50 for record "Nc1nccc(-n2ccc3cc(NC(=O)CCc4ccccc4)ccc32)n1"
4.27

Give the reported value of pIC50 for this record: "COc1cccc(CNC(=O)c2cccc3c2CCN3c2ccnc(N)n2)c1"
5.79

Tell us which pIC50 value is on record for "COc1ccc2ccn(-c3ccnc(N)n3)c2c1"
5.31

Write down pIC50 measured for item "Nc1nccc(-n2ccc3ccccc32)n1"
5.32

Please look at this molecule and report its pIC50: "Nc1nccc(-n2ccc3cc(OCc4ccccc4)ccc32)n1"
4.41

Using the record for "Nc1nccc(N2CCc3cc(S(N)(=O)=O)ccc32)n1" , state its measured pIC50.
4.59

Fill in pIC50 for record "Nc1nccc(Nc2cccc(S(N)(=O)=O)c2)n1"
5.21

Give me measured pIC50, please, for this molecule: "COc1ccc2c(c1)c(CCNC(C)=O)cn2-c1ccnc(N)n1"
5.31

Report pIC50, nothing else, for this molecule: CC1CN(c2ccnc(N)n2)c2ccccc21 (stereo not drawn)
5.32

====

System Tested: ROCK1 (Homo sapiens (Human))
Measurement Protocol: Z-lyte FRET assay to measure kinase inhibition, ROCK1
Format: biochemical
Experimental Setup: read-out: ROCK1 IC50
Sorting guide: entries reporting IC50 beneath 8 µM go in the satisfied pile, the rest go in the not satisfied pile.

| Molecule | Qualitative Label |
| --- | --- |
| Nc1nccc(-n2ccc3c(C(=O)NCc4cccc(N5CCCC5=O)c4)cccc32)n1 | not satisfied |
| COC(=O)c1ccc(Nc2ccnc(N)n2)cc1 | not satisfied |
| NC(=O)c1ccc(Nc2ccnc(N)n2)cc1 | not satisfied |
| Nc1nccc(Nc2ccc([N+](=O)[O-])cc2)n1 | satisfied |
| Nc1nccc(N2CCc3ccc([N+](=O)[O-])cc32)n1 | satisfied |

Does "COc1cccc(CNC(=O)c2cccc3c2ccn3-c2ccnc(NC(C)=O)n2)c1" have IC50 strictly under 8 µM?
not satisfied

In the record for "COc1cccc(CNC(=O)c2cccc3c2ccn3-c2ccnc(N)n2)c1" , is IC50 less than 8 µM?
satisfied

Please let me know if "Nc1nccc(-n2ccc3c(C(=O)NCc4ccc(F)cc4)cccc32)n1" shows IC50 below 8 µM.
not satisfied

Hello, is IC50 of the following molecule strictly smaller than 8 µM? "COc1cccc(Nc2ccnc(N)n2)c1"
not satisfied

Problem: For the molecule "Nc1nccc(N2CCc3ccccc32)n1" , is IC50 under 8 µM?
satisfied

I wonder whether CC(NC(=O)c1cccc2c1ccn2-c1ccnc(N)n1)c1ccccc1 (centres unmarked) [drawing 178] has IC50 below 8 µM. Can you tell?
satisfied

====

System Tested: ROCK1 (Homo sapiens (Human))
Measurement Protocol: Z-lyte FRET assay to measure kinase inhibition, ROCK1
Assay type: biochemical
Experimental Setup: read-out: ROCK1 IC50
// NB: equality with 2 µM counts as Criterion not met; only IC50 strictly below is Criterion met

State whether 2 µM exceeds IC50 recorded for "Nc1nccc(-n2ccc3c(C(=O)NCc4ccccc4)cccc32)n1" .
Criterion met

====

System Tested: ROCK2 (Homo sapiens (Human), UniProt O75116)
Measurement Protocol: Z-lyte FRET assay to measure kinase inhibition, ROCK2
Type: biochemical
Measured Metric: pIC50
Worth noting: pIC50 values are minus log10 of concentrations stated in mol/L.

# example entries with known answers
| Compound | pIC50 |
| --- | --- |
| Nc1nccc(-n2ccc3c(OCc4ccccc4Cl)cccc32)n1 | 4.72 |
| CC(NC(=O)c1cccc2c1ccn2-c1ccnc(N)n1)c1ccccc1 (centres unmarked) [drawing 178] | 7.22 |
| Nc1nccc(-n2ccc3c(OCc4cccc(Cl)c4)cccc32)n1 | 4.49 |
| Nc1nccc(-n2ccc3cc(NC(=O)CCc4ccccc4)ccc32)n1 | 5.08 |
| COc1cccc(CNC(=O)c2cccc3c2CCN3c2ccnc(N)n2)c1 | 6.60 |

Given the compound "Nc1nccc(Nc2ccc([N+](=O)[O-])cc2)n1" , write its reported pIC50.
5.43

Give pIC50 for the following compound: "Nc1nccc(-n2ccc3ccccc32)n1"
5.40

Consider the compound "Nc1nccc(-n2ccc3ccc(Cl)cc32)n1" . State its measured pIC50.
6.00

Using known records, supply pIC50 for "Nc1nccc(-n2ccc3cc(C(=O)NCc4ccccc4)ccc32)n1"
6.52

Input "Nc1nccc(N2CCc3c(OCc4ccccc4)cccc32)n1" , output reported pIC50.
6.60

Give pIC50 for "Nc1nccc(-n2ccc3cc(C(=O)NCCc4ccccc4)ccc32)n1"
6.15

====

System Tested: ROCK1 (Homo sapiens (Human), UniProt Q13464)
Sequence (Q13464 whole entry): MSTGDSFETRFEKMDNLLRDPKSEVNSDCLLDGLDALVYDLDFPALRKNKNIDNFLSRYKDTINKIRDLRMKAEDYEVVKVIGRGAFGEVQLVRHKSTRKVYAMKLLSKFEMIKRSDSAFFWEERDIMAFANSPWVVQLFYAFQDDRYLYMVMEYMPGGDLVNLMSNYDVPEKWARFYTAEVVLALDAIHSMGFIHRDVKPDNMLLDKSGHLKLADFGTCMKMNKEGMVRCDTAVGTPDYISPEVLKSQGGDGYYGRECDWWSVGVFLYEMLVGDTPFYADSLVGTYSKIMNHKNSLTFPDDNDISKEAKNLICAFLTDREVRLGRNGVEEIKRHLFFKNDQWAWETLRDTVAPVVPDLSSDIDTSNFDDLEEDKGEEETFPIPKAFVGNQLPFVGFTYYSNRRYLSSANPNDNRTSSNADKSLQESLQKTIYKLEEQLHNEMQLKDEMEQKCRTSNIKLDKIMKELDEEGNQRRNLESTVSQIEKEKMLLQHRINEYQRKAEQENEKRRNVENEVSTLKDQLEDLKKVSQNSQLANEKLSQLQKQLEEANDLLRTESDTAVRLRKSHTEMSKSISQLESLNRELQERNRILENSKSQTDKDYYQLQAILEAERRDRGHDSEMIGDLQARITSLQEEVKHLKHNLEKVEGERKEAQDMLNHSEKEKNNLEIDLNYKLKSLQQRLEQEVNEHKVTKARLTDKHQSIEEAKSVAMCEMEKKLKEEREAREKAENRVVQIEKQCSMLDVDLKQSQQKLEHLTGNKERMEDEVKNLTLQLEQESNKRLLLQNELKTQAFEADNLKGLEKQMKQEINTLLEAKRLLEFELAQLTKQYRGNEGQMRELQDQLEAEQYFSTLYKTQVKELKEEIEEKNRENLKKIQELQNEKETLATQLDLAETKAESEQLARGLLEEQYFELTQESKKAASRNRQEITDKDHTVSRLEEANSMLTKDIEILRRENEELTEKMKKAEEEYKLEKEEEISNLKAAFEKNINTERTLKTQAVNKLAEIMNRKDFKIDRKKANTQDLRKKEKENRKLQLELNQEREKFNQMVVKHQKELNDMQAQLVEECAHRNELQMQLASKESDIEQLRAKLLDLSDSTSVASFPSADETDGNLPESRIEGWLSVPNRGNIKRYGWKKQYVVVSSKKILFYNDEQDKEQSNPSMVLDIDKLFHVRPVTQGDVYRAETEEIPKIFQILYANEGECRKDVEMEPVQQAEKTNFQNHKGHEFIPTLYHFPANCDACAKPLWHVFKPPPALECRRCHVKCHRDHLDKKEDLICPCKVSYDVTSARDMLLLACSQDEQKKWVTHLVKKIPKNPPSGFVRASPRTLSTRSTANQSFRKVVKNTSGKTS
Measurement Protocol: Z-lyte FRET assay to measure kinase inhibition, ROCK1
Format: biochemical
Experimental Setup: read-out: ROCK1 % inhibition @ 50 μM, 50 μM compound
We use 50% as the dividing line for inhibition at 50 µM: on or above the line is fulfilled, below is not fulfilled.

Use the examples below as a reference point.
| Molecule | Qualitative Label |
| --- | --- |
| Nc1nccc(N2CCc3cc(Br)ccc32)n1 | fulfilled |
| CC(=O)Nc1cccc(Nc2ccnc(N)n2)c1 | not fulfilled |
| c1ccc(COc2cccc3c2CCN3c2ncnc3[nH]ccc23)cc1 | not fulfilled |

Dear colleague, could you confirm whether "Nc1nccc(Nc2cc(S(N)(=O)=O)ccc2O)n1" has inhibition at 50 µM at or above 50%?
not fulfilled

Check if inhibition at 50 µM >= 50% (inclusive). Item: "Nc1nccc(N2CCc3c(OCc4ccccc4)cccc32)n1"
fulfilled
